Cited source for all entries: patent US20230286919A1

- subject-of-test: HCK (Homo sapiens, UniProt P08631)
- Sequence (P08631 whole entry): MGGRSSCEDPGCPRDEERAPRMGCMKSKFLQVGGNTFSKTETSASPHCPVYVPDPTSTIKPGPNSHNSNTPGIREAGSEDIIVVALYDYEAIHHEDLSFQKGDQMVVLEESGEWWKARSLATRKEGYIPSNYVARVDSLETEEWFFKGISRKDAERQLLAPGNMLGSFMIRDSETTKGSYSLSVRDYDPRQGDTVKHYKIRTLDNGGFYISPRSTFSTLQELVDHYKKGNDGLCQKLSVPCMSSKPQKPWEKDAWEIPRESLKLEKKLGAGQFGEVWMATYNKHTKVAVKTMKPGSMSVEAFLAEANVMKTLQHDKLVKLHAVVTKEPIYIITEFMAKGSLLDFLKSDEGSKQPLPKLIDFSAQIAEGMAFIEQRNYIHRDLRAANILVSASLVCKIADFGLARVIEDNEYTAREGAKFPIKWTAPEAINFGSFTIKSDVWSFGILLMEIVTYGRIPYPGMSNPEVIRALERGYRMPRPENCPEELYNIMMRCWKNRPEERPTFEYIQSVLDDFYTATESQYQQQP
pIC50: −log10 of the molar value.
endpoint-name: pIC50

C[C@@H]1CCC(c2cc3c4c(cncc4c2)[C@H](C)C3)=C1C=O [323-1, (15R,2R)-Delavatine A] | < 4.70

Would you kindly look at the next entry?
Would you mind telling me what pIC50 value was observed for C[C@@H]1CCC(c2cc3c4c(cncc4c2)[C@@H](C)C3)=C1C=O [323-2, (15S,2R)-Delavatine A] ?
< 4.70

* * *

Here we list compounds with their recorded IC50 when tested on MAPK1 (ERK2) (Homo sapiens, UniProt P28482).
Sequence (P28482 whole entry): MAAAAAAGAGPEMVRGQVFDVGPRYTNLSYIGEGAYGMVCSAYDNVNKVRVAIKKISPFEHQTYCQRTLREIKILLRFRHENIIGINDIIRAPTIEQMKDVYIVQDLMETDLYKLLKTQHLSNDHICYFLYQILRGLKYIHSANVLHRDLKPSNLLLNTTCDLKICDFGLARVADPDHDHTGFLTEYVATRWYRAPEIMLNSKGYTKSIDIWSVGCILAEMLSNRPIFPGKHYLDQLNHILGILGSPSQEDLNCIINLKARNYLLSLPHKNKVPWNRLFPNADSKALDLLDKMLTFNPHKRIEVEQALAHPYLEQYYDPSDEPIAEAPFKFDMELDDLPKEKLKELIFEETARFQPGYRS

C[C@@H]1CCC(c2cc3c4c(cncc4c2)[C@H](C)C3)=C1C=O [323-1, (15R,2R)-Delavatine A] | > 20 µM

Would you kindly look at the next entry?
Would you mind telling me what IC50 value was observed for C[C@@H]1CCC(c2cc3c4c(cncc4c2)[C@@H](C)C3)=C1C=O [323-2, (15S,2R)-Delavatine A] ?
> 20 µM
